Tested on: HS 578T breast
Assay: NCI tumour cell line growth inhibition, 48 h
Answer each item with its documented TGI.

stdin: If you can, please state the reported TGI value of "COc1ccc2c(c1)[nH]c1c3ccc(OC)cc3oc(=O)c21" .
stdout: > 100 µM

stdin: If you can, please state the reported TGI value of C=C1C(=O)OC2(C)CCC1CC1OC1(C)CCC=C(C)CCC2O (stereo not given) .
stdout: > 100 µM

stdin: If you can, please state the reported TGI value of "Cc1cn2cc(-c3ccc4c(c3)CC(=O)N4)nc2s1" .
stdout: > 100 µM

stdin: If you can, please state the reported TGI value of "NC(=S)NS(=O)(=O)c1ccc(Cl)cc1" .
stdout: > 100 µM

stdin: If you can, please state the reported TGI value of "Cc1cc(S(=O)(=O)Nc2n[nH]c(Nc3ccccc3)n2)c(SSc2cc(Cl)c(C)cc2S(=O)(=O)Nc2n[nH]c(Nc3ccccc3)n2)cc1Cl" .
stdout: > 100 µM

stdin: If you can, please state the reported TGI value of CCC(C)N1CN(c2ccccc2)C2(CCN(CCCC3(c4ccc(F)cc4)OCCO3)CC2)C1=O (stereo not given) .
stdout: 14.2 µM

stdin: If you can, please state the reported TGI value of ClC1=C(Cl)C2OC3C=CCC3OC2C(Cl)=C1Cl (stereo not given) .
stdout: 89.7 µM

stdin: If you can, please state the reported TGI value of "O=c1onc(Nc2ccccc2)n1-c1ccccc1" .
stdout: > 100 µM

stdin: If you can, please state the reported TGI value of "Cc1oc2nc(N(C)C)n3cnnc3c2c1C" .
stdout: > 100 µM

stdin: If you can, please state the reported TGI value of "Nc1ccc(C(=O)O)cc1" .
stdout: > 100 µM

stdin: If you can, please state the reported TGI value of "N/C(CC(=O)NOC(=O)c1ccccc1)=N/OC(=O)c1ccccc1" .
stdout: > 100 µM

stdin: If you can, please state the reported TGI value of "CNc1nc(-c2ccc3c(N)n[nH]c3c2)cc(N2C[C@@H](C(=O)NC3CCCCC3)CC[C@H]2C)n1" .
stdout: 8.86 µM

stdin: If you can, please state the reported TGI value of "O=C1Nc2ccccc2SC1=C(C(=O)c1ccccc1)C(=O)c1ccccc1" .
stdout: > 100 µM

stdin: If you can, please state the reported TGI value of "COC(=O)/C=C\C(C#N)(C#N)N=Cc1ccc(Br)cc1" .
stdout: 49.7 µM

stdin: If you can, please state the reported TGI value of "CC(=O)c1c(O)cc(O)c(-c2c(C)cc(O)c3c2C(=O)c2cccc(O)c2C3=O)c1O" .
stdout: 34.6 µM
